experiment.notes: activity coefficient (dimensionless); of the first substance listed, at infinite dilution; xn = mol fraction of the nth substance listed
measurement.conditions: 354.3 K; Liquid; Chromatography; x1 = 0
Catalogue of activity coefficient readings, one per entry.

CCc1ccccc1 [ethylbenzene] + CCOS(=O)(=O)[O-].CCn1cc[n+](C)c1; 9.16

Ask: I'd like to know its activity coefficient. The compound in question is CC#N [acetonitrile] + CCOS(=O)(=O)[O-].CCn1cc[n+](C)c1
Result: 0.77

Ask: Also, CCCCCc1ccccc1 [pentylbenzene] + CCOS(=O)(=O)[O-].CCn1cc[n+](C)c1 please.
Result: 43.5

Ask: Thanks! And CCCCc1ccccc1 [butylbenzene] + CCOS(=O)(=O)[O-].CCn1cc[n+](C)c1 ?
Result: 26.3

Ask: One more compound: CCCc1ccccc1 [propylbenzene] + CCOS(=O)(=O)[O-].CCn1cc[n+](C)c1
Result: 15.7

Ask: Now the compound CCO [ethanol] + CCOS(=O)(=O)[O-].CCn1cc[n+](C)c1
Result: 0.67
